- Test system: KRAS-mutant PDC tumor spheroid with HUVEC/MSC, viability
- ASSAY REMARKS: Anticancer human tumor 327498-153-R-J2-PDC patient-derived uterine carcinosarcoma cell line growth inhibition [KRAS2]
- TEST CONTEXT: curve of first compound; second compound 3.16 µM
REPORTED PROPERTY: IC50 (nM)
The figure you give is taken to be in nM; do not add the unit.

Would you please give the reported IC50 of CC1COCCN1c1cc(-c2ccnn2C)c2ccnc(-c3ccn[nH]3)c2n1 (stereo not given) + COc1cc2nc(C)nc(NC(C)c3cc(N)cc(C(F)(F)F)c3)c2cc1OC1CCOC1 with KRAS-mutant PDC tumor spheroid with HUVEC/MSC, viability?
13.2

Provide IC50, system KRAS-mutant PDC tumor spheroid with HUVEC/MSC, viability, entry CC(=O)Nc1cccc(-n2c(=O)n(C3CC3)c(=O)c3c(Nc4ccc(I)cc4F)n(C)c(=O)c(C)c32)c1 + C=CC(=O)N1CCN(c2nc(=O)n(-c3c(C)ccnc3C(C)C)c3nc(-c4c(O)cccc4F)c(F)cc23)C(C)C1
2.38

State IC50 (KRAS-mutant PDC tumor spheroid with HUVEC/MSC, viability) of CC(C)n1nc(-c2ccc3oc(N)nc3c2)c2c(N)ncnc21 + COc1cc2nc(C)nc(NC(C)c3cc(N)cc(C(F)(F)F)c3)c2cc1OC1CCOC1 .
0.824

###

- Tested on: KRAS-mutant PDC tumor spheroid with HUVEC/MSC, viability
- ASSAY REMARKS: Anticancer human tumor 327498-153-R-J2-PDC cell line growth inhibition [KRAS2];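 note: spheroids exposed to agents for seven days before reading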;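 for viability, T/C: 100% = DMSO vehicle wells so lower means fewer viable cells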
- TEST CONTEXT: second compound 0.1 µM; first compound 0.001 µM; stronger effect = lower value
- Text: Multicellular complex tumor spheroid response to RAS pathway inhibitors in combination with a targeted agents in patient-derived cell lines with oncogenic KRAS variants from multiple cancer types A high-throughput screen of multi-cell type tumor spheroids was designed to identify active combinations of targeted small molecules and KRAS pathway inhibitors. […] Compounds. […] If the clinical Cmax for an agent had not been determined, the highest concentration tested was 10 microM. […]
Hi there, I'd appreciate the recorded viability, T/C for every entry that follows.

State recorded viability, T/C with KRAS-mutant PDC tumor spheroid with HUVEC/MSC, viability, entry CC(C)n1nc(-c2ccc3oc(N)nc3c2)c2c(N)ncnc21 + C=CC(=O)N1CCN(c2nc(OCC3CCCN3C)nc3c2CCN(c2cccc4cccc(C)c24)C3)CC1CC#N , no comment.
35.8%

State, for KRAS-mutant PDC tumor spheroid with HUVEC/MSC, viability, measured viability, T/C of the compound listed here: CN(C)C/C=C/C(=O)Nc1cc2c(Nc3ccc(F)c(Cl)c3)ncnc2cc1O[C@H]1CCOC1 + COc1cc2nc(C)nc(NC(C)c3cc(N)cc(C(F)(F)F)c3)c2cc1OC1CCOC1
84%

Look up and report viability, T/C, with KRAS-mutant PDC tumor spheroid with HUVEC/MSC, viability as system, for CN(C)C/C=C/C(=O)Nc1cc2c(Nc3ccc(F)c(Cl)c3)ncnc2cc1O[C@H]1CCOC1 + CC1OCC2(CCN(c3cnc(Sc4ccnc(N)c4Cl)c(N)n3)CC2)C1N
82%

###

- Tested on: KRAS-mutant PDC tumor spheroid with HUVEC/MSC, viability
- ASSAY REMARKS: Anticancer human tumor 327498-153-R-J2-PDC cell line growth inhibition [KRAS2];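 note: spheroids exposed to agents for seven days before reading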
- TEST CONTEXT: curve of first compound; second compound 1 µM
REPORTED PROPERTY: IC50

Query IC50 for CCN1CCN(Cc2ccc(Nc3ncc(F)c(-c4cc(F)c5nc(C)n(C(C)C)c5c4)n3)nc2)CC1 + COc1cc2nc(C)nc(NC(C)c3cc(N)cc(C(F)(F)F)c3)c2cc1OC1CCOC1
< 0.00316 µM

Note IC50 for the molecule shown: CC(C)n1nc(-c2ccc3oc(N)nc3c2)c2c(N)ncnc21 + C=CC(=O)N1CCN(c2nc(OCC3CCCN3C)nc3c2CCN(c2cccc4cccc(C)c24)C3)CC1CC#N
< 0.000316 µM

Consider the molecule COC(=O)c1ccc2c(C(=Nc3ccc(N(C)C(=O)CN4CCN(C)CC4)cc3)c3ccccc3)c(O)[nH]c2c1 + C=CC(=O)N1CCN(c2nc(OCC3CCCN3C)nc3c2CCN(c2cccc4cccc(C)c24)C3)CC1CC#N . State its measured IC50.
< 0.0316 µM

Quickly give me recorded IC50 for CC1(C)CCC(CN2CCN(c3ccc(C(=O)NS(=O)(=O)c4ccc(NCC5CCOCC5)c([N+](=O)[O-])c4)c(Oc4cnc5[nH]ccc5c4)c3)CC2)=C(c2ccc(Cl)cc2)C1 + C=CC(=O)N1CCN(c2nc(=O)n(-c3c(C)ccnc3C(C)C)c3nc(-c4c(O)cccc4F)c(F)cc23)C(C)C1
1.58 µM

Supply reported IC50 belonging to this molecule: COC(=O)c1ccc2c(C(=Nc3ccc(N(C)C(=O)CN4CCN(C)CC4)cc3)c3ccccc3)c(O)[nH]c2c1 + CC1OCC2(CCN(c3cnc(Sc4ccnc(N)c4Cl)c(N)n3)CC2)C1N
< 0.0316 µM

Tell us which IC50 value is on record for COc1cc(Nc2ncc3c(n2)-c2ccc(Cl)cc2C(c2c(F)cccc2OC)=NC3)ccc1C(=O)O + C=CC(=O)N1CCN(c2nc(OCC3CCCN3C)nc3c2CCN(c2cccc4cccc(C)c24)C3)CC1CC#N
< 0.0316 µM

Return reported IC50. Input molecule: CC(C)NCC(C(=O)N1CCN(c2ncnc3c2C(C)CC3O)CC1)c1ccc(Cl)cc1 (centres undefined) + CC1OCC2(CCN(c3cnc(Sc4ccnc(N)c4Cl)c(N)n3)CC2)C1N
< 0.0316 µM

Input CCNC(=O)CC1N=C(c2ccc(Cl)cc2)c2cc(OC)ccc2-n2c(C)nnc21 (centres undefined) + CNCc1ccccc1-c1csc(C(C)Nc2nc(C)nc3cc(OC)c(OC)cc23)c1 , output reported IC50.
0.382 µM

Identify measured IC50 associated with CC(C)n1nc(-c2ccc3oc(N)nc3c2)c2c(N)ncnc21 + COc1cc2nc(C)nc(NC(C)c3cc(N)cc(C(F)(F)F)c3)c2cc1OC1CCOC1
0.00198 µM

###

- Test system: KRAS-mutant PDC tumor spheroid with HUVEC/MSC, viability
- ASSAY REMARKS: Anticancer human tumor 327498-153-R-J2-PDC cell line growth inhibition [KRAS2];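 note: spheroids exposed to agents for seven days before reading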;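 for viability, T/C: 100% = DMSO vehicle wells so lower means fewer viable cells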
- TEST CONTEXT: second compound 3.16 µM; first compound 0.000316 µM; stronger effect = lower value
Please assign false (0) whenever viability, T/C is at or above 50%, and true (1) whenever it is below.

Find out if reported viability, T/C for CC(C)n1nc(-c2ccc3oc(N)nc3c2)c2c(N)ncnc21 + COc1cc2nc(C)nc(NC(C)c3cc(N)cc(C(F)(F)F)c3)c2cc1OC1CCOC1 is less than 50%
false (0)

Lab note: confirm whether the reported viability, T/C for this compound is below 50%, equality not counting. compound: Cn1ncnc1[C@H]1c2n[nH]c(=O)c3cc(F)cc(c23)N[C@@H]1c1ccc(F)cc1 + COc1cc2nc(C)nc(NC(C)c3cc(N)cc(C(F)(F)F)c3)c2cc1OC1CCOC1
false (0)

I wonder whether CC(=O)Nc1cccc(-n2c(=O)n(C3CC3)c(=O)c3c(Nc4ccc(I)cc4F)n(C)c(=O)c(C)c32)c1 + C=CC(=O)N1CCN(c2nc(=O)n(-c3c(C)ccnc3C(C)C)c3nc(-c4c(O)cccc4F)c(F)cc23)C(C)C1 has viability, T/C below 50%. Can you tell?
false (0)

API: query returns whether the compound falls strictly under 50% in viability, T/C. Query: CN(C)C/C=C/C(=O)Nc1cc2c(Nc3ccc(F)c(Cl)c3)ncnc2cc1O[C@H]1CCOC1 + COc1cc2nc(C)nc(NC(C)c3cc(N)cc(C(F)(F)F)c3)c2cc1OC1CCOC1
false (0)

Please check: viability, T/C for Cn1ncnc1[C@H]1c2n[nH]c(=O)c3cc(F)cc(c23)N[C@@H]1c1ccc(F)cc1 + CC1OCC2(CCN(c3cnc(Sc4ccnc(N)c4Cl)c(N)n3)CC2)C1N , strictly under 50% or not?
true (1)

Dear colleague, could you confirm whether viability, T/C of CC(C)n1nc(-c2ccc3oc(N)nc3c2)c2c(N)ncnc21 + C=CC(=O)N1CCN(c2nc(=O)n(-c3c(C)ccnc3C(C)C)c3nc(-c4c(O)cccc4F)c(F)cc23)C(C)C1 falls below 50%? Thanks.
true (1)

Please indicate whether the reported viability, T/C of CN(C)C/C=C/C(=O)Nc1cc2c(Nc3ccc(F)c(Cl)c3)ncnc2cc1O[C@H]1CCOC1 + CC1OCC2(CCN(c3cnc(Sc4ccnc(N)c4Cl)c(N)n3)CC2)C1N is strictly below 50%.
true (1)

is_below(viability, T/C, 50%) for CC(=O)Nc1cccc(-n2c(=O)n(C3CC3)c(=O)c3c(Nc4ccc(I)cc4F)n(C)c(=O)c(C)c32)c1 + COc1cc2nc(C)nc(NC(C)c3cc(N)cc(C(F)(F)F)c3)c2cc1OC1CCOC1 ?
false (0)

Record Cn1ncnc1[C@H]1c2n[nH]c(=O)c3cc(F)cc(c23)N[C@@H]1c1ccc(F)cc1 + CNCc1ccccc1-c1csc(C(C)Nc2nc(C)nc3cc(OC)c(OC)cc23)c1 : is its viability, T/C strictly below 50%?
true (1)
